Values from patent US10316017B2

molecular target: human Cot catalytic domain (30-397 amino acids) (Homo sapiens); construct: Purified recombinant human Cot catalytic domain (30-397 amino acids) was purchased from Cama Biosciences; purchased Cama Biosciences (so in the source); assay: High Throughput Cot Biochemical Assay (KinEASE TR-FRET); conditions: Cot biochemical HTRF (KinEASE TR-FRET) assay; read-out: IC50 HTRF
Sequence (P41279 30-397): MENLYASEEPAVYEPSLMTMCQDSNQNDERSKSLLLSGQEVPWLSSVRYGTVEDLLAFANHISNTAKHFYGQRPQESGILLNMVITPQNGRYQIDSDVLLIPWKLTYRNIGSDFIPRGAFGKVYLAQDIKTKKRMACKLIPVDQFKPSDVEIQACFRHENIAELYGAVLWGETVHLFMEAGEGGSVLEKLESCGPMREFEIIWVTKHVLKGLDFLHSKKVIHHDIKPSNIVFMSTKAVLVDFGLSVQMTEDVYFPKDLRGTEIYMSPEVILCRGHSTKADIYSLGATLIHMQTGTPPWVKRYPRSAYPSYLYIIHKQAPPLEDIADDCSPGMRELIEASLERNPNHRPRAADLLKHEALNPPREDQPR
quantity-name: IC50 (µM)
Enter your answer as a number in µM; do not include the unit.

Qu. Which IC50 is listed for CC(C)n1cc([C@@H](Nc2cc(Cl)c3ncc(C#N)c(N[C@H](C)c4ccccc4)c3c2)c2ccccc2)nn1 [Example 588] ?
Ans. 0.017

Qu. Which IC50 is listed for CCC[C@@H](Nc1c(C#N)cnc2c(Cl)cc(N[C@@H](c3ccccc3)c3cn(C4CCN(C(C)(C)C)CC4)nn3)cc12)c1ccccc1 [Example 558] ?
Ans. 0.011
